Documented NT50 across a set of binders
SYSTEM: T1, Marburg virus Musoke GP on rVSV pseudotype (VSV-MARV Musoke GP) (Marburg virus, Musoke strain, UniProt P35253 19-681)
T1 sequence: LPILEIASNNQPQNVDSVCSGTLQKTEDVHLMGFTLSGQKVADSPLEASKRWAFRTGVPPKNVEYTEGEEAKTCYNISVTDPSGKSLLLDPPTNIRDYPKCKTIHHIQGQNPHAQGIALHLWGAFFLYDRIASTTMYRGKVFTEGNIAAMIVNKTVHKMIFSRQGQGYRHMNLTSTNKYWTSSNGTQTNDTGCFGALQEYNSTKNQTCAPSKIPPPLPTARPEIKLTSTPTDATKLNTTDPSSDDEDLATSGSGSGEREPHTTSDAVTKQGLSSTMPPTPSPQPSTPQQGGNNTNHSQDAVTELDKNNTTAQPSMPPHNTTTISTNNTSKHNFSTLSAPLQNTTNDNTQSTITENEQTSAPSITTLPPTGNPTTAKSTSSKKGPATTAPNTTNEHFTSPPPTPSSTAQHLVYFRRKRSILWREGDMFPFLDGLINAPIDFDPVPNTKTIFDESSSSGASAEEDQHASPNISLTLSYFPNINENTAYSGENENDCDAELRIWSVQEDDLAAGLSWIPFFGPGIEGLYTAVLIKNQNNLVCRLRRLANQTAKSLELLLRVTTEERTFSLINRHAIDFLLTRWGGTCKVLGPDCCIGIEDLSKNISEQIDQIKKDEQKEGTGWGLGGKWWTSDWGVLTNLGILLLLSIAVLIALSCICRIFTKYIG
ASSAY DETAILS: cell-based or functional assay
EXPERIMENTAL READOUT: NT50 (µg/mL)

>>> numeric_result("R45 (antibody, V domains shown) VH: EVQLVESGGGLAKPGGSLRLSCAASGFTFGDHWMSWVRQAPGNGLQWISAIDRAGGSTFYADSVKGRFTISRENAKNTLYLQIDSLRPEDTAVYFCARDQGRTVGYLDYWGQGVLVTVSS VL: QSALTQPRSVSGSPGQSVTISCTGTSSDIGSYTYVSWYRQHPGTAPKLIIYDVDERPSGVSYRFSGSKSGNTASLTISGLQAEDEADYYCSSYAGRNTWVFGGGTRLTVL")
0.1
>>> numeric_result("R53 (antibody, V domains shown) VH: QVQLQESGPGLVKPSETLSLTCAVSGASISSYWWNWIRQPPGKGLEWIGEIYGYSGSTYYSPSLKSRVTISKDASKNQFSLKLSSATAADTAVYYCVRDPLNQDAFDFWGQGLRVTVSS VL: QSALTQPPSVSGSPGQSVTISCTGTSSDIGSYDYVSWYQQHPGKAPKLMMYDVSKRPSGVFDRFSGSKSGNTASLTISGLQADDEAAYFCSSYAGRRILLFGGGTRLTVL")
0.02
>>> numeric_result("R15 (antibody, V domains shown) VH: EVQLVESGAGLVRPGGSLRLSCAASGFTFSNTWMTWVRQAPGRGLEWLARIKRKADGETADYAASVKGRFTISRDDSKHTLFLQMNSLKTEDTAVYYCTTYNWNFNFDNWGQGVLVTVSS VL: DIQMTQSPSSLSASVGDRVTITCRASQAFSSYLNWYQQKPGKAPKLLIYYANRLESGVPSRFSGSESGTEFTLTISSLQPEDFATYYCQQYYRLPLTFGGGTKVEIK")
0.03
>>> numeric_result("R39 (antibody, V domains shown) VH: EVQLVESGAGLVQPGGSLRLSCAGSGFTFSNTWMTWVRQAPGKGLEWVARIKRKADGETADYAASVKGRFTISRDDSKNTLYLQMNSLKTEDTAVYYCTTYNWNFNFDYWGQGVLVTVSS VL: DIQMTQSPSSLSASVGDRVTITCRASQDISPYLNWYQQKPGKAPKLLIYYGNRLESGVPSRFSGSGSGTDLTLTISSLQPEDFATYYCQQYYRLPLTFGGGTKVEIK")
0.04
>>> numeric_result("R13 (antibody, V domains shown) VH: EVQLVESGAGLVQPGGSLRLSCAASGFTFSNSWMTWVRQAPGKGLEWLARIKRKADGETADYAASVKGRFTISRDDSKNTLYLQMNSLKTEDTAVYYCTTYNWNFNFDFWGQGVLVTVSS VL: DIQMTQSPSSLSASVGDRVTITCRASQDISPYLNWYQQKPGKAPKLLIYYGNRLESGVPSRFSGSGSGTDLTLTISSLQPEDFATYYCQQYYRLPLTFGGGTKVETK")
0.03
>>> numeric_result("R63 (antibody, V domains shown) VH: QVQLQESGPGLVKASETLSLTCAVSGASISSYWWNWIRLSPGKGLEWIGEIYGYSGSTSYNSSLKSRVSISRDASKNQFSLKLSSVTAADTAVYYCARDPLNHDAFDFWGRGFRVTVSS VL: QSALTQPPSVSGSPGQSVTISCAGTSSDIGGYTYVSWYQQHPGKAPKLMIYDVNERPSGVSDRFSGSKSGNTASLTISGLQAEDEADYYCSSYAGSKTVSFGGGTRLSVL")
0.05
>>> numeric_result("R18 (antibody, V domains shown) VH: QVQLQESGPGLVKASETLSLTCAVSGASISSYWWNWIRLSPGKGLEWIGEIYGYSGSTSYKSSLKSRVSISRDASKNQFSLKLTSVTAADTAVYYCARDPLNHDAFDFWGRGLRVTVSS VL: QSALTQPPSVSGSPGQSVTISCAGTSSDIGGYTYVSWYQQHPGKAPKLMIYDVNERPSGVSDRFSGSISGNTASLTISGLQAEDEADYYCSSYAGSKTVLFGGGTRLSVL")
0.09
>>> numeric_result("R24 (antibody, V domains shown) VH: EVQLVESGAGLVQPGGSLRLSCAGSGFTFSNTWMTWVRQAPGKGLEWVARIKRKADGETADYAASVKGRFTISRDDSKSTLYLQMNSLKTEDTAVYYCTTYNWNFNFDYWGQGVLVTVSS VL: DIQMTQSPSSLSASVGDRVTITCRASQDISPYLNWYQQKPGKAPKLLIYYGNRLESGVPSRFSGSGSGTDLTLTISSLQPEDFATYYCQQYYRLPLTFGGGTKVESK")
0.03
>>> numeric_result("R80 (antibody, V domains shown) VH: EVQLVESGGGLAKPGGSLRLSCAASGFTFNDYWLFWVRQAPGRGLEWISTINRPGSSTFYADSVKGRFTISRENANNALYLQMDSLRPEDTAVYYCARDQGRTVGYLDYWGQGVLVTVSS VL: QSALTQPRSVSGSPGQSVTISCTGTSSDIGSYSYVSWYQQHPGTAPKLIIYDDSERPSGVSDRFSGSKSGNTASLTISGLQAEDEADYYCSSYAGSNTWVFGGGTRLTVL")
0.21
>>> numeric_result("R64 (antibody, V domains shown) VH: QVQLQESGPGLVKPSETLSLTCAVSGASMSDYWWNWIRQPPGKGLEWIGEIYGYSGSSYYNPSLKSRVSISKDASKKQLSLKLSSVTAADTAVYYCARDPLNQDAFDFWGLGLRVTVSS VL: QSALTQPPSVSGSPGLSVTISCTGSGSDIGGYDYVSWYQQHPGKAPKLMIYGVNKRPSGVSDRFSGSKSGNTASLSISGLQAEDEADYYCSSYAGSHTLLFGGGSRLTVL")
0.03
